tested on: tyramine oxidase; assay: Substrate specificity of tyramine oxidase; format: biochemical, Arthrobacter sp. B-0813; design: concentration or dose not given beside the values; settings: substrate added to the reaction mixture; tyramine = 100.0
Label rule met when Relative activity (%) as substrate < 50%; otherwise rule not met.

input: Consider the compound NCc1ccccc1 [Benzylamine] . Is its Relative activity (%) as substrate strictly less than 50%?
output: rule met

input: Please do the same for CN [Methylamine] as well.
output: rule met

input: Please do the same for CCCCN [n-butylamine] as well.
output: rule met

input: Please do the same for CCN [Ethylamine] as well.
output: rule met

input: Please do the same for NCCc1ccccc1 [β-phenylethylamine] as well.
output: rule not met

input: Please do the same for NCCc1ccc(Cl)cc1 [p-chlorophenylethylamine] as well.
output: rule met

input: Please do the same for NCCc1ccc(O)cc1 [Tyramine, p-hydroxyphenylethylamine] as well.
output: rule not met
